FYI, the data here is from PubChem BioAssay (Tox21).

# system-tested: Voltage-gated inwardly rectifying potassium channel KCNH2 (Homo sapiens) (UniProt Q12809)
# Sequence (Q12809 whole entry, looked up): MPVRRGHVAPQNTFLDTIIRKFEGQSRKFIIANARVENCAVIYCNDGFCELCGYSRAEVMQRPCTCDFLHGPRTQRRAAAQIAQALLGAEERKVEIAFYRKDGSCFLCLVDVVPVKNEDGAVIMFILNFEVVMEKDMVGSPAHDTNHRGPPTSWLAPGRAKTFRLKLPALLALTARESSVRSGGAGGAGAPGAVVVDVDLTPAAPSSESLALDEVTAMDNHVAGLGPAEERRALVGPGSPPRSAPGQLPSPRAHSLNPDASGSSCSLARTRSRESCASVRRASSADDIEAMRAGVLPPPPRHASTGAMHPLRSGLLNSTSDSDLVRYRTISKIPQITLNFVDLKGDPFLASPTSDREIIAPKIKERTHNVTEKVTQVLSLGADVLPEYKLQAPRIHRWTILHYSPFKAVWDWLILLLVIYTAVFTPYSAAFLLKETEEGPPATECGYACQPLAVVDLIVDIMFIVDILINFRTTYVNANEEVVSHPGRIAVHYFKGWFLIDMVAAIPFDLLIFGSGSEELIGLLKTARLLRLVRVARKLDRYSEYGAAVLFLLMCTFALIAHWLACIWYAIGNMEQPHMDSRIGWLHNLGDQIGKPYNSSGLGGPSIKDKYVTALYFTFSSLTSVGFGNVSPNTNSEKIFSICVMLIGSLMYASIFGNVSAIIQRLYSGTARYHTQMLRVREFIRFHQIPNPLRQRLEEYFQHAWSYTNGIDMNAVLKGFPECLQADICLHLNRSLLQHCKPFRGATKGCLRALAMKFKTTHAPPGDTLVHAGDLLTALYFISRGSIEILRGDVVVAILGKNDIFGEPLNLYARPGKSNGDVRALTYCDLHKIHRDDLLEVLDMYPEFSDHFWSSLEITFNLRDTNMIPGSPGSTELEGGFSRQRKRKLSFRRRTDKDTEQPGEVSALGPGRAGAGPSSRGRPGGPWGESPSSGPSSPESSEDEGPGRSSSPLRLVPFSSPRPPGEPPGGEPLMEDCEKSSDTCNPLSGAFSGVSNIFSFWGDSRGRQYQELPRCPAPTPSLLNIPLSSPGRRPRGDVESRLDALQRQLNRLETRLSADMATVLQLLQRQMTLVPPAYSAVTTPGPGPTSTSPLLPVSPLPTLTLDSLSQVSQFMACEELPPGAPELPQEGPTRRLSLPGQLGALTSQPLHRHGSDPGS
# measurement-notes: Human Ether-a-go-go-Related Gene (hERG) channel small molecule antagonists: fluorescence cell-based qHTS assay (AID 1671200); also: nearly all actives have a fitted effect of over 50% in size
# run-parameters: hERG-U2OS cells, FluxOR thallium flux fluorescence; series mostly up to 76.8 µM
Inconclusive results are not listed. The source made the active and inactive calls. Calls follow the shape of the dose curve; as a rule, active = well fitted inhibition curve with a large enough effect in the repeat runs; inconclusive = weak or mixed curves; inactive = flat fitted curve, though single readings scatter.
Outcome codes: yes (1) for active, no (0) for inactive

- compound: "CCCCP(CCCC)CCCC"
  class-name: "no (0)"
- compound: "Cc1cc(C)c(C(=O)P(=O)(C(=O)c2c(C)cc(C)cc2C)c2ccccc2)c(C)c1"
  class-name: "no (0)"
- compound: "N#CC(CCc1ccc(Cl)cc1)(Cn1cncn1)c1ccccc1 (stereo not given)"
  class-name: "yes (1)"
- compound: "CN(C)CCc1ccc(O)cc1"
  class-name: "no (0)"
- compound: "O=[N+]([O-])c1ccc2c3c(cccc13)CC2"
  class-name: "no (0)"
- compound: "CCC(Cl)[N+](=O)[O-] (stereo not given)"
  class-name: "no (0)"
- compound: "O=[N+]([O-])c1ccc(CBr)cc1"
  class-name: "no (0)"
- compound: "Cc1coc2c1CCC(C)C2 (stereo not given)"
  class-name: "no (0)"
- compound: "CSc1nc(N=[N+]=[N-])nc(NC(C)C)n1"
  class-name: "no (0)"
- compound: "CCCCc1ccc(O)cc1"
  class-name: "no (0)"
- compound: "CN(N=O)C(N)=O"
  class-name: "no (0)"
- compound: "Cc1nc(N)nc(N)n1"
  class-name: "no (0)"
- compound: "ClC(Cl)C(Cl)Cl"
  class-name: "no (0)"
- compound: "CC(Cl)(Cl)[N+](=O)[O-]"
  class-name: "no (0)"
- compound: "CC(C)CP(=S)(S)CC(C)C"
  class-name: "no (0)"

----------
# measurement-notes: qHTS assay to test for compound auto fluorescence at 590 nm (red) in HEK293 cell free culture (AID 720683); also: % is scaled to controls: 0 for no effect and ±100 for the full control effect
# run-parameters: cell-free medium autofluorescence, Ex540/Em590 red; series mostly up to 91.3 µM
# Excerpt: U.S. Tox21 Program National Center for Advancing Translational Sciences [NCATS] NIH Chemical Genomics Center [NCGC] U.S. Environmental Protection Agency [EPA] National Institutes of Environmental Health Sciences [NIEHS] National Toxicology Program [NTP] U.S. Food and Drug Administration [FDA] Tox21 Assay Overview: Compound auto fluorescence often interferes with screening of the compound library against various biological targets and signaling pathways. […] This assay includes the red fluorescence data. […]
Active and inactive are the calls of the source. Calls follow the shape of the dose curve; as a rule, active = well fitted curve in the direction sought with a large enough effect in the repeat runs; inconclusive = weak or mixed curves; inactive = flat fitted curve, though single readings scatter.

- compound: "O=C1OC(c2ccc(O)c(S(=O)(=O)O)c2)(c2ccc(O)c(S(=O)(=O)O)c2)c2c(Br)c(Br)c(Br)c(Br)c21"
  fluorescence, % of fluorescent control: "inactive"
- compound: "CNC(=O)O/N=C(\\C)SC"
  fluorescence, % of fluorescent control: "inactive"
- compound: "CCOP(=S)(OCC)Oc1cc(-c2ccccc2)on1"
  fluorescence, % of fluorescent control: "inactive"
- compound: "C=C(C)CN(CC)c1c([N+](=O)[O-])cc(C(F)(F)F)cc1[N+](=O)[O-]"
  fluorescence, % of fluorescent control: "inactive"
- compound: "CCC1(c2ccccc2)C(=O)NC(=O)NC1=O"
  fluorescence, % of fluorescent control: "inactive"
- compound: "C#CCN1C(=O)COc2cc(F)c(N3C(=O)C4=C(CCCC4)C3=O)cc21"
  fluorescence, % of fluorescent control: "inactive"
- compound: "COc1cc2c(cc1OC)[C@@]13CCN4CC5=CCO[C@H]6CC(=O)N2[C@H]1[C@H]6[C@H]5C[C@H]43"
  fluorescence, % of fluorescent control: "inactive"
- compound: "CCCCCCI"
  fluorescence, % of fluorescent control: "inactive"
- compound: "c1coc(-c2nc3ccccc3[nH]2)c1"
  fluorescence, % of fluorescent control: "inactive"
- compound: "C[N+](=O)[O-]"
  fluorescence, % of fluorescent control: "inactive"
- compound: "N#CCBr"
  fluorescence, % of fluorescent control: "inactive"
- compound: "CCN(CC)CCOC(=O)C(C)(c1ccccc1)c1ccccc1"
  fluorescence, % of fluorescent control: "inactive"
- compound: "N#CC(Cl)(Cl)Cl"
  fluorescence, % of fluorescent control: "inactive"
- compound: "COCC(=O)N(c1c(C)cccc1C)N1CCOC1=O"
  fluorescence, % of fluorescent control: "inactive"
- compound: "CC(=O)CCc1ccc2c(c1)OCO2"
  fluorescence, % of fluorescent control: "inactive"
- compound: "O=C1c2ccccc2C(=O)c2ccccc21"
  fluorescence, % of fluorescent control: "inactive"
- compound: "CNC(=O)N(C)c1nc2ccccc2s1"
  fluorescence, % of fluorescent control: "inactive"
- compound: "Cc1cnc[nH]1"
  fluorescence, % of fluorescent control: "inactive"
- compound: "CCOC(=O)NC(=S)Nc1ccccc1NC(=S)NC(=O)OCC"
  fluorescence, % of fluorescent control: "inactive"
- compound: "Cc1cc(C)c(C(=O)P(=O)(C(=O)c2c(C)cc(C)cc2C)c2ccccc2)c(C)c1"
  fluorescence, % of fluorescent control: "inactive"
- compound: "CN1C(=S)CN=C(c2ccccc2)c2cc(Cl)ccc21"
  fluorescence, % of fluorescent control: "inactive"
- compound: "O=NN1CCCCC1"
  fluorescence, % of fluorescent control: "inactive"
- compound: "Oc1c(Cl)cccc1Cl"
  fluorescence, % of fluorescent control: "inactive"
- compound: "BrCCCCCCBr"
  fluorescence, % of fluorescent control: "inactive"
- compound: "CCN(Cc1ccc(Cl)nc1)/C(=C/[N+](=O)[O-])NC"
  fluorescence, % of fluorescent control: "inactive"
- compound: "c1cc2c(c(N3CCNCC3)c1)OCCO2"
  fluorescence, % of fluorescent control: "inactive"
- compound: "CCCCOC(=O)c1ccccc1C(=O)O"
  fluorescence, % of fluorescent control: "inactive"
- compound: "N#CCCC#N"
  fluorescence, % of fluorescent control: "inactive"
- compound: "COc1cc(OC)nc(Sc2cccc(Cl)c2C(=O)O)n1"
  fluorescence, % of fluorescent control: "inactive"
- compound: "CCCCN(CCCCO)N=O"
  fluorescence, % of fluorescent control: "inactive"
- compound: "CCOP(=O)(N=C1SCCS1)OCC"
  fluorescence, % of fluorescent control: "inactive"
- compound: "Cc1ccccc1CO[C@@H]1C[C@@]2(C(C)C)CC[C@]1(C)O2"
  fluorescence, % of fluorescent control: "inactive"
- compound: "CCNc1nc(NC(C)C)nc(OC)n1"
  fluorescence, % of fluorescent control: "inactive"
- compound: "CCOC(=O)CP(=O)(OCC)OCC"
  fluorescence, % of fluorescent control: "inactive"
- compound: "O=C1OC(=O)C2C1C1(Cl)C(Cl)=C(Cl)C2(Cl)C1(Cl)Cl (stereo not drawn)"
  fluorescence, % of fluorescent control: "inactive"
- compound: "Nc1n[nH]c(N)n1"
  fluorescence, % of fluorescent control: "inactive"
- compound: "ClC(Cl)Br"
  fluorescence, % of fluorescent control: "inactive"
- compound: "O=C(O)c1cccc(Cl)c1"
  fluorescence, % of fluorescent control: "inactive"
- compound: "CCS(=O)(=O)CCSP(=O)(OC)OC"
  fluorescence, % of fluorescent control: "inactive"
- compound: "CC1(C)CON(Cc2ccccc2Cl)C1=O"
  fluorescence, % of fluorescent control: "inactive"
- compound: "O=C1CN=C(c2ccccc2)c2cc([N+](=O)[O-])ccc2N1"
  fluorescence, % of fluorescent control: "inactive"
- compound: "Cc1nnc2n1-c1sc(CCC(=O)N3CCOCC3)cc1C(c1ccccc1Cl)=NC2"
  fluorescence, % of fluorescent control: "inactive"
- compound: "CNNC"
  fluorescence, % of fluorescent control: "inactive"
- compound: "CC(COc1ccc(Oc2ccccc2)cc1)Oc1ccccn1 (stereo not drawn)"
  fluorescence, % of fluorescent control: "inactive"
- compound: "ClCC(Cl)(Cl)Cl"
  fluorescence, % of fluorescent control: "inactive"
- compound: "CCCCc1c(C)nc(NCC)[nH]c1=O"
  fluorescence, % of fluorescent control: "inactive"
- compound: "N#CC(O)c1ccccc1 (stereo not drawn)"
  fluorescence, % of fluorescent control: "inactive"
- compound: "C[C@@H]1CN(C2CCC(C#N)(c3ccc(F)cc3)CC2)CC[C@]1(C(=O)O)c1ccccc1 (stereo partly drawn)"
  fluorescence, % of fluorescent control: "0.238% [at 18.6 µM] (inactive)"
- compound: "CC1CCCCC1NC(=O)Nc1ccccc1 (stereo not drawn)"
  fluorescence, % of fluorescent control: "inactive"
- compound: "[As]#[In]"
  fluorescence, % of fluorescent control: "inactive"
- compound: "CCOC(=O)N(C)C(=O)CSP(=S)(OCC)OCC"
  fluorescence, % of fluorescent control: "inactive"
- compound: "COP(=S)(OC)Oc1ccc(S(N)(=O)=O)cc1"
  fluorescence, % of fluorescent control: "inactive"
- compound: "N#Cc1ccncc1"
  fluorescence, % of fluorescent control: "inactive"
- compound: "CCCCCCBr"
  fluorescence, % of fluorescent control: "inactive"
- compound: "CCCSC(=O)N(CCC)CCC"
  fluorescence, % of fluorescent control: "inactive"
- compound: "CCCSC(=O)Cl"
  fluorescence, % of fluorescent control: "inactive"
- compound: "CNC(=O)Oc1cccc(C(C)C)c1"
  fluorescence, % of fluorescent control: "inactive"
- compound: "COc1cccc(C(=O)NN(C(=O)c2cc(C)cc(C)c2)C(C)(C)C)c1C"
  fluorescence, % of fluorescent control: "inactive"
